We begin with a simple list: items and their reported pIC50.
target: UniProt P04626; assay: Inhibition of erbB2 expressed in Sf9 cells
Sequence (P04626 whole entry): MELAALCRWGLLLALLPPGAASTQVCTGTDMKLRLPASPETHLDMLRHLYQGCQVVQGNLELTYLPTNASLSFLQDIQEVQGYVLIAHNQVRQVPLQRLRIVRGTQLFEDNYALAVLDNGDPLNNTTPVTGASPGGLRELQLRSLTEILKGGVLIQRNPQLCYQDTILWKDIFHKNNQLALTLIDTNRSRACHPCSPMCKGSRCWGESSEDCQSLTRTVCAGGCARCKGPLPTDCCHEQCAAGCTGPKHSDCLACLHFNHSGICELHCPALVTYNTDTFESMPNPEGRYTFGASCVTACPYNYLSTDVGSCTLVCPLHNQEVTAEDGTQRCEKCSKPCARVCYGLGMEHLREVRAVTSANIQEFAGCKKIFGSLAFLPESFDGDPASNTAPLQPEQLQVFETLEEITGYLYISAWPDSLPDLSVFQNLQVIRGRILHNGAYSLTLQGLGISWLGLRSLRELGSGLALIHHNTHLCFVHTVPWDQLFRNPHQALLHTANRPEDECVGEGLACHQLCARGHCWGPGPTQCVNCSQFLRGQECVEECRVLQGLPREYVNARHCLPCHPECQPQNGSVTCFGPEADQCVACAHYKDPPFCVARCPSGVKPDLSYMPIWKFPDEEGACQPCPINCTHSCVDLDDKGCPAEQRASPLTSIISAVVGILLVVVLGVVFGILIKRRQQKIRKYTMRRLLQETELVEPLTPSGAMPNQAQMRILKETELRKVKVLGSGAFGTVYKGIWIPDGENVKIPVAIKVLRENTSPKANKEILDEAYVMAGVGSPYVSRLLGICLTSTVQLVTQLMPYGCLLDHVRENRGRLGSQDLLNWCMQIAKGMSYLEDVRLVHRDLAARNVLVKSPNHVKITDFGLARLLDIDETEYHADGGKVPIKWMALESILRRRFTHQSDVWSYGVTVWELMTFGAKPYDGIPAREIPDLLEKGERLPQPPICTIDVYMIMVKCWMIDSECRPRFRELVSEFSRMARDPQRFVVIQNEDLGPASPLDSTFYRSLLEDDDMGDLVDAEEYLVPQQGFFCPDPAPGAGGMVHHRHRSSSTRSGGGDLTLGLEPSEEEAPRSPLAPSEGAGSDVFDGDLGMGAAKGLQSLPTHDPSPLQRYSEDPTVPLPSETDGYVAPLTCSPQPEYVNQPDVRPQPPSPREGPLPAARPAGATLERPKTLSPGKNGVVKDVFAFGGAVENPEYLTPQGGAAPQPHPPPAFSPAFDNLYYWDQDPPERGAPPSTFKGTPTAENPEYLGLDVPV
# log scale: pIC50 equals minus log10 of the concentration in mol/L

Cc1cc(Nc2ncnc3cnc(N4CCCC4)cc23)ccc1Oc1ccc(C(=O)NCC(C)(C)C)cc1 : 7.44
COCC(=O)NCC#Cc1ccc2ncnc(Nc3ccc(Oc4cccc(C(=O)NCC(C)(C)C)c4)c(C)c3)c2c1 : 6.89
Cc1cc(Nc2ncnc3cnc(N4CCOCC4)cc23)ccc1OC1CCN(C(=O)C2CCCC2)CC1 : 7.74
COCC(=O)NCC#Cc1ccc2ncnc(Nc3ccc(OC4CCN(C(=O)Nc5c(F)cccc5F)CC4)c(C)c3)c2c1 : 7.12
COCCOc1cc2ncnc(Nc3ccc(OC4CCN(C(=O)C5CCCC5)CC4)c(C)c3)c2cc1OCCOC : 7.11

### Prompt Fill in: pIC50 of COCC(=O)NCC#Cc1ccc2ncnc(Nc3ccc(OC4CCN(C(=O)CC(C)(C)C)CC4)c(C)c3)c2c1 is ___
### Response 7.03

### Prompt And Cc1cc(Nc2ncnc3cnc(N(C)C)cc23)ccc1OC1CCN(C(=O)Nc2c(F)cccc2F)CC1 ?
### Response 7.68

### Prompt And COCC(=O)NCC#Cc1ccc2ncnc(Nc3ccc(OC4CCN(C(=O)c5cccc(Cl)c5)CC4)c(C)c3)c2c1 ?
### Response 6.68
